system: BT-549 breast; experiment: NCI tumour cell line growth inhibition, 48 h
Quantity Name: TGI

Cc1cc(S(=O)(=O)NC2=NCC(C)NN2)c(S)cc1Cl (stereo unspecified): > 100 µM
CC(C)(C)C1=NC(=P(c2ccccc2)(c2ccccc2)c2ccccc2)C(=O)O1: > 100 µM
Nc1nc(Cl)nc(NCc2ccccc2)n1: > 100 µM
Nc1ccc(Cc2ccc(N=Cc3ccc(OCc4cccc(COc5ccc(C=Nc6ccc(Cc7ccc(N)cc7)cc6)cc5)n4)cc3)cc2)cc1: > 100 µM
CCn1c(-c2nonc2N)nc2c(C#CC(C)(C)O)nc(CN3CCCC3)cc21: > 25 µM

Here's the next entry for you.
Exercise: For BT-549 breast, provide TGI of CC(=O)N1C(Nc2ccccc2)CCN1c1ccccc1 (stereo unspecified) please.
Solution: > 10 µM
